Dear all, I have gathered published IC50 values for Serine/threonine-protein kinase PLK2 (Homo sapiens); the list follows.

Solved cases (5 shown):
Cn1cc(C(N)=O)cc1-c1ccnc(Nc2cc(N3CCNCC3)ccc2OC(F)(F)F)n1	> 10 µM
COc1ccc2c(c1)[C@]1(C[C@H]1c1ccc3c(/C=C/c4ccc(CN5C[C@@H](C)O[C@@H](C)C5)cc4)n[nH]c3c1)C(=O)N2	> 50 µM
Cn1cc(C(N)=O)cc1-c1ccnc(Nc2cc(N3CCN(C(=O)OC(C)(C)C)CC3)ccc2OC(F)(F)F)n1	> 10 µM
COc1ccc2c(c1)/C(=C\c1ccc3c(/C=C/c4cccnc4)n[nH]c3c1)C(=O)N2	> 10 µM
Cn1nc(C(N)=O)c2c1-c1nc(Nc3cc(NC(=O)[C@@H]4CCCN4)ccc3OC(F)(F)F)ncc1CC2	1.45 µM

List the reported IC50 of each molecule below.
1. CCn1nc(C(N)=O)c2c1-c1nc(Nc3cc(N4CCN(C)CC4)ccc3OC(F)(F)F)ncc1CC2
2. CN1CCN(c2ccc(OC(F)(F)F)c(Nc3ncc4c(n3)-c3c(c(C(N)=O)nn3CCCl)CC4)c2)CC1
3. O=C1Nc2ccccc2/C1=C\c1ccc2c(/C=C/c3ccncc3)n[nH]c2c1
4. CN1CCN(c2ccc(OC(F)(F)F)c(Nc3nccc(-c4cc5c(n4CCO)CCNC5=O)n3)c2)CC1
5. CN1CCN(c2ccc(OC(F)(F)F)c(Nc3ncc4c(n3)-c3c(c(C(N)=O)nn3C)CC4)c2)[C@@H](CO)C1
6. CN1CCC(C(=O)Nc2ccc(OC(F)(F)F)c(Nc3ncc4c(n3)-c3c(c(C(N)=O)nn3C)CC4)c2)CC1
7. COc1ccc2c(c1)/C(=C\c1ccc3c(/C=C/c4ccncc4)n[nH]c3c1)C(=O)N2
8. O=C1Nc2ccc(O)cc2/C1=C\c1ccc2c(/C=C/c3ccncc3)n[nH]c2c1

1. > 10 µM
2. > 10 µM
3. > 10 µM
4. > 10 µM
5. > 10 µM
6. 1.5 µM
7. > 10 µM
8. > 10 µM

---

Dear all, I have gathered published IC50 values for Serine/threonine-protein kinase PLK2 (Homo sapiens); the list follows.

Solved cases (2 shown):
CN1CCN(c2ccc(OC(F)(F)F)c(Nc3nccc(-c4cc(C(N)=O)cn4CCOC4CCCCO4)n3)c2)CC1 (stereo unspecified)	> 10 µM
Cn1nc(C(N)=O)c2c1-c1nc(Nc3ccccc3OC(F)(F)F)ncc1CC2	0.206 µM

List the reported IC50 of each molecule below.
1. O=C1Nc2ccccc2[C@]12C[C@H]2c1ccc2c(/C=C/c3ccncc3)n[nH]c2c1 (relative stereo)
2. CN1CCC(Nc2ccc(OC(F)(F)F)c(Nc3ncc4c(n3)-c3c(c(C(N)=O)nn3C)CC4)c2)CC1
3. O=C1Nc2ccccc2/C1=C/c1ccc2[nH]ncc2c1
4. CN1CCN(c2ccc(OC(F)(F)F)c(Nc3nccc(-c4cc(C(N)=O)cn4C)n3)c2)CC1
5. CC(=O)Nc1ccc2c(c1)NC(=O)/C2=C/c1ccc2cn[nH]c2c1
6. CC[C@@H]1C(=O)N(C)c2cnc(Nc3ccc(C(=O)N[C@H]4CC[C@@H](N5CCN(CC6CC6)CC5)CC4)cc3OC)nc2N1C(C)C
7. COc1ccc(Br)cc1/C=c1\sc2nc(=O)c(C)nn2c1=O

> 100 µM
3.42 µM
1.9 µM
> 10 µM
10 µM
0.005 µM
1.7 µM
